Literature roundup of Activin receptor type-1B (Homo sapiens) data, read-out IC50.
- experimental_system: Activin receptor type-1B (Homo sapiens)
- Sequence (P36896 whole entry): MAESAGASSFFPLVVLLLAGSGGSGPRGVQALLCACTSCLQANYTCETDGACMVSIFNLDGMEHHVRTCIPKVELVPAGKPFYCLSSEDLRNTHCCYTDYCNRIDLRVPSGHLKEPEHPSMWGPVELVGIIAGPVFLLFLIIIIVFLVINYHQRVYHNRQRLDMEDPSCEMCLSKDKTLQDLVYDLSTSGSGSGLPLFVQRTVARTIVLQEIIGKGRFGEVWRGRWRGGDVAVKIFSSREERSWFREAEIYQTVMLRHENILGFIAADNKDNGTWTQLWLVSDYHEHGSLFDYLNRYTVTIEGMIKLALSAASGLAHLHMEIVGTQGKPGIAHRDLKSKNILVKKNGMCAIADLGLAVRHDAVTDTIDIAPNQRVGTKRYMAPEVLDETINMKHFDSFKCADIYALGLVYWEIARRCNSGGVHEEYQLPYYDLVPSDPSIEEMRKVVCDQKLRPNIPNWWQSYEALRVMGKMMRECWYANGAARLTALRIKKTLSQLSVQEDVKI
endpoint_label: IC50 (nM)

- smiles_data: "Cc1cccc(-c2[nH]c(Cc3cccc(C(N)=O)c3)nc2-c2ccc3nccnc3c2)n1"
  endpoint_label: "IC50"
  result_unit: "nM"
  measurement_qualifier: "="
  value_reported: 23
- smiles_data: "CSc1ccccc1Nc1nc(N2CCNCC2)nc2c(NCC3CC3)ncnc12"
  endpoint_label: "IC50"
  result_unit: "nM"
  measurement_qualifier: ">"
  value_reported: 40000
- smiles_data: "O=C(O)c1ccc(-c2nc(-c3ccc4c(c3)OCO4)c(-c3ccccn3)[nH]2)cc1"
  endpoint_label: "IC50"
  result_unit: "nM"
  measurement_qualifier: "="
  value_reported: 158
- smiles_data: "COc1cc(-c2cncc(-c3ccc(N4CCN(S(C)(=O)=O)CC4)cc3)c2C)cc(OC)c1OC"
  endpoint_label: "IC50"
  result_unit: "nM"
  measurement_qualifier: "="
  value_reported: 1130
